Tested on: UO-31
Test: NCI tumour cell line growth inhibition, 48 h
Calls of active or inactive are those of the source. Cut-off read from the data, not from the text of the source: active = GI50 up to about 1.1 µM and inactive = higher.
reported_metric: GI50

molecule	recorded_value
CCSC1=N/C(=C\c2ccccc2O)C(Nc2ccc(C)cc2)=N1	> 100 µM (inactive)
CC(=O)Oc1ccc(-c2nnc(-c3ccc(OC(C)=O)cc3)nn2)cc1	64 µM (inactive)
CCN(CC(=O)O)CC(=O)O	> 100 µM (inactive)
C=C1C(=O)OC2CC1C(O)C/C(C)=C/CC/C(C)=C/C(O)CC2C (stereo unspecified)	2.33 µM (inactive)
O=C1CC(c2ccccc2Cl)C2(C(=O)NC(=O)NC2=O)C(c2ccccc2Cl)C1 (stereo unspecified)	> 100 µM (inactive)
N#CCN(CC#N)C1CC=CCC1N(CC#N)CC#N (stereo unspecified)	> 100 µM (inactive)
Cc1ncc(CO)c(/C=N/CCCCCC/N=C/c2c(CO)cnc(C)c2[O-])c1[O-].[Mg+2]	> 100 µM (inactive)
Clc1ccc(Cl)c2[s+]snc12	> 100 µM (inactive)
CO/N=C1/c2sccc2[C@H](NC(=O)C(F)(F)F)[C@@H]1O	> 100 µM (inactive)
CCOC(=O)C(=O)NNc1nc2c(s1)C(=O)c1ccccc1C2=O	2.29 µM (inactive)
CN(C)CCN1C(=O)CC[C@@]2(C)C1=CC[C@@H]1[C@@H]2CC[C@@]2(C)[C@H]1CC[C@]2(C)O	> 100 µM (inactive)

====

A collection of compounds and their measured GI50
Test system: HOP-92
Test: NCI tumour cell line growth inhibition, 48 h
Activity calls are given as the source filed them. Rule as the data show it: active = GI50 up to about 1.1 µM and inactive = higher.
reported_metric: GI50

compound	reported_metric	recorded_value
CCOC(=O)c1c(-c2ccc(Cl)cc2)c(C#N)c(=S)n(C2OC(CO)C(O)C(O)C2O)c1-c1ccccc1 (stereo unspecified)	GI50	18.9 µM (inactive)
O=[N+]([O-])c1cc(F)ccc1Sc1ccccc1	GI50	> 10 µM (inactive)
Cc1ccc(C2(O)CC(c3ccc([N+](=O)[O-])o3)=NN2C(=O)COc2ccccc2Cl)cc1 (stereo unspecified)	GI50	27.4 µM (inactive)
CCc1n[nH]c(=O)n1CCO	GI50	> 100 µM (inactive)
C=CCN1C[C@H](C)N([C@H](c2ccc(C(=O)N(CC)CC)cc2)c2cccc(OC)c2)C[C@H]1C	GI50	5.11 µM (inactive)
CCOc1nc2c(N3CCCC3)nc(N3CCNCC3)nc2nc1NCc1ccccc1	GI50	1.13 µM (inactive)
Fc1ccc(C2SCc3nc4ccccc4n32)c(F)c1 (stereo unspecified)	GI50	29.8 µM (inactive)
N#Cc1ccc(Nc2nc3[nH]cnc3c(=O)[nH]2)cc1	GI50	> 100 µM (inactive)
O=c1c2cccnc2ncn1CCN1CCCCC1	GI50	> 100 µM (inactive)
O=C1C(=C(C(F)(F)Cl)C(F)(F)Cl)C2CCC1C2 (stereo unspecified)	GI50	2.58 µM (inactive)
C=CC1(c2ccc(Br)cc2)OCCCO1	GI50	> 100 µM (inactive)

====

Tested on: HL-60
Test: NCI tumour cell line growth inhibition, 48 h
Activity calls are given as the source filed them. No stated cut-off is given here; in the data, active = GI50 up to about 1.1 µM and inactive = higher.
Outcome codes: true = active, false = inactive

compound	category
Cc1ccc2c(c1)CC1(C2=O)[C@H](c2ccccc2)C2C(=O)c3ccc(C)cc3C2[C@H]1c1ccccc1 (stereo partly specified)	false
OC[C@H]1CC(c2nn[nH]n2)[C@H](O)[C@@H]1O (stereo partly specified)	false
CC1=NN(C(=O)CC(=O)Nc2ccc(C)cc2)C(=O)C1/N=N/c1ccc(C(=O)O)cc1 (stereo unspecified)	false
C/C(CC(=O)Nc1cccc([N+](=O)[O-])c1)=N\NC(=O)CC#N	false
CCOC(=O)C1OC(C2(C)OC3(OC4(C=CC3O)OC(C(C)C(=O)C(C)C(O)C(C)CC(C)c3c(Cl)cc(C)c(O)c3C(=O)O)C(C)CC4C)C(C)C2OC)CC1O (stereo unspecified)	true
CCCCCCCCCCCCCCCCSS(C)(=O)=O	false
